Assay: Multiple ascending dose IV study in healthy adult subjects (safety, PK)
Format: in vivo, human
Details: human, plasma, intravenous, 400 mg, 400 mg weekly, Day 1
Protocol: A second study of CD101 administered by IV injection to healthy adult subjects was also performed. […] Dose levels of CD101 assessed follow an ascending multiple-dose regimen (100 mg×2 doses, 200 mg×2 doses, or 400 mg×3 doses). Pharmacokinetics were determined by analyzing plasma and urine samples for concentration of CD101 obtained from subjects who received CD101 in each cohort at various time points after administration of CD101.
*1 amine or outer side, *2 acyl side, *3 side chain or, on linkers, in order; H or OH if unused. Where a SMILES comes first, the peptide text is derived from it. Bridges are numbered along the chain shown (N, C = ends). [ ]: non-standard residue; d: D form. The star is where a group is joined. Orn(4R-OH,5R-OCH2CH2NMe3+) = C[N+](C)(C)CCO[C@@H](N[*:3])[C@H](O)C[C@H](N[*:1])C(=O)[*:2]; pTerphenylCO(4''-OnC5H11) = CCCCCOc1ccc(-c2ccc(-c3ccc(C(=O)*)cc3)cc2)cc1; hTyr(3S-OH,4S-OH) = N[C@H](C(=O)O)[C@H](O)[C@@H](O)c1ccc(O)cc1; Pro(3S-OH,4S-Me) = C[C@H]1CN[C@H](C(=O)O)[C@H]1O; Hyp = O=C(O)[C@@H]1C[C@@H](O)CN1
measurement_name: Cmax (ng/mL)
Answer with a number only, understood to be in ng/mL.

## Input Need Cmax, item CCCCCOc1ccc(-c2ccc(-c3ccc(C(=O)N[C@H]4C[C@@H](O)[C@@H](OCC[N+](C)(C)C)NC(=O)[C@@H]5[C@@H](O)[C@@H](C)CN5C(=O)[C@H]([C@@H](C)O)NC(=O)[C@H]([C@H](O)[C@@H](O)c5ccc(O)cc5)NC(=O)[C@@H]5C[C@@H](O)CN5C(=O)[C@H]([C@@H](C)O)NC4=O)cc3)cc2)cc1 [CD101] ({pTerphenylCO(4''-OnC5H11)}-[Orn(4R-OH,5R-OCH2CH2NMe3+)]T[Hyp][hTyr(3S-OH,4S-OH)]T[Pro(3S-OH,4S-Me)]; lactam 1-C)
## Output 22700
